This listing pairs compounds with measured Dmax.
- test.target: IRAK-4 (Homo sapiens, UniProt Q9NWZ3)
- Sequence (Q9NWZ3 whole entry): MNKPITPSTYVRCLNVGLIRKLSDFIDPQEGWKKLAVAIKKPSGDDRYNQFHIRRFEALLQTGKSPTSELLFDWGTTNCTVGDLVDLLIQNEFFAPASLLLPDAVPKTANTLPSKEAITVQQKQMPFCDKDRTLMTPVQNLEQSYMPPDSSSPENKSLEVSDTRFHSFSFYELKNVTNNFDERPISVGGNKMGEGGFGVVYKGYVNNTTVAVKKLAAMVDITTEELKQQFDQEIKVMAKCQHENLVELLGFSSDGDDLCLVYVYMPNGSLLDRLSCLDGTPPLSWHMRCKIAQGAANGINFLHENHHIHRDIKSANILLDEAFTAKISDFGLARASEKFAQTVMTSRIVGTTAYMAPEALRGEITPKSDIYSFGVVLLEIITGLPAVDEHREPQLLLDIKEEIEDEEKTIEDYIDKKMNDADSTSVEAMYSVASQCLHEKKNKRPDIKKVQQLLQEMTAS
- procedure.details: IRAK-4 ELISA, PBMC degradation
- Format: cell-based
- Set-up: endogenous in cells; host or cells: PBMC
- conditions.used: treated overnight
measured.quantity: Dmax

[
  {
    "compound": "CC(C)Oc1nc2c(cc1NC(=O)c1cnn3cccnc13)CN(C1CCN(CCc3ccc4c(c3)C(=O)N(C3CCC(=O)NC3=O)C4=O)CC1)C2=O (centres unmarked)",
    "measured.quantity": "Dmax",
    "observed.result": "80 to 90%"
  },
  {
    "compound": "CC(C)Oc1cc2c(cc1NC(=O)c1cnn3cccnc13)CN(C1CCN(C[C@@H]3CCN(c4ccc5c(c4)C(=O)N(C4CCC(=O)NC4=O)C5=O)C3)CC1)C2=O (some centres unmarked)",
    "measured.quantity": "Dmax",
    "observed.result": "≥ 90%"
  },
  {
    "compound": "CC(C)Oc1cc2c(cc1NC(=O)c1cnn3cccnc13)CN(C1CCN(CC3(F)CN(c4cccc5c4n(C)c(=O)n5C4CCC(=O)NC4=O)C3)CC1)C2=O (centres unmarked)",
    "measured.quantity": "Dmax",
    "observed.result": "≥ 90%"
  },
  {
    "compound": "CC(C)Oc1cc2c(cc1NC(=O)c1cnn3cccnc13)CN(C1CCN(C3CCN(c4ccc5c(c4)CN(C4CCC(=O)NC4=O)C5=O)CC3)CC1)C2=O (centres unmarked)",
    "measured.quantity": "Dmax",
    "observed.result": "≥ 90%"
  },
  {
    "compound": "CN(CC1(F)CCN(c2ccc3c(c2)C(=O)N(C2CCC(=O)NC2=O)C3=O)CC1)[C@H]1CC[C@H](n2cc3cc(NC(=O)c4cnn5cccnc45)c(OCC4CC4)cc3n2)CC1 (some centres unmarked)",
    "measured.quantity": "Dmax",
    "observed.result": "80 to 90%"
  },
  {
    "compound": "CC(C)Oc1cc2c(cc1NC(=O)c1cnn3cccnc13)CN(C1CCN(CC3(F)CN(c4ccc5c(c4)C(=O)N(C4CCC(=O)NC4=O)C5=O)C3)CC1)C2=O (centres unmarked)",
    "measured.quantity": "Dmax",
    "observed.result": "≥ 90%"
  },
  {
    "compound": "O=C1CCC(N2C(=O)c3ccc(N4CC[C@@H](N5CCC(n6cc7cc(NC(=O)c8cnn9cccnc89)c(OCC8CC8)cc7n6)CC5)C4)cc3C2=O)C(=O)N1 (some centres unmarked)",
    "measured.quantity": "Dmax",
    "observed.result": "80 to 90%"
  },
  {
    "compound": "O=C1CCC(N2C(=O)c3ccc(N4CCO[C@@H](CN5CCC(n6cc7cc(NC(=O)c8cnn9cccnc89)c(OCC8CC8)cc7n6)CC5)C4)cc3C2=O)C(=O)N1 (some centres unmarked)",
    "measured.quantity": "Dmax",
    "observed.result": "≥ 90%"
  },
  {
    "compound": "O=C1CCC(N2C(=O)c3ccc(N4CC5(CCC(N6CCC(n7cc8cc(NC(=O)c9cnn%10cccnc9%10)c(OCC9CC9)cc8n7)CC6)CC5)C4)cc3C2=O)C(=O)N1 (centres unmarked)",
    "measured.quantity": "Dmax",
    "observed.result": "80 to 90%"
  },
  {
    "compound": "O=C1CCC(N2Cc3cc(CCN4CCC(n5cc6cc(NC(=O)c7cnn8cccnc78)c(OCC7CC7)cc6n5)CC4)ccc3C2=O)C(=O)N1 (centres unmarked)",
    "measured.quantity": "Dmax",
    "observed.result": "< 70%"
  },
  {
    "compound": "O=C1CCC(N2C(=O)c3ccc(N4CC(F)(CN[C@H]5CC[C@H](n6cc7cc(NC(=O)c8cnn9cccnc89)c(OCC8CC8)cc7n6)CC5)C4)cc3C2=O)C(=O)N1 (some centres unmarked)",
    "measured.quantity": "Dmax",
    "observed.result": "80 to 90%"
  }
]
